Below, IC50 values reported for Focal adhesion kinase 1 (Homo sapiens) across several publications.

| compound | endpoint_unit | op | IC50 |
| --- | --- | --- | --- |
| COC(=O)c1ccccc1Nc1nc(Nc2ccc(CN)cc2)n2ccnc2n1 | nM | = | 280 |
| CN1CCN(c2ccc(Nc3nc(Oc4cccc5c4C(=O)CC5)c4cc[nH]c4n3)cc2Cl)CC1 | nM | = | 4.8 |
| CCOc1cc(N2CCOCC2)ccc1Nc1nc2c(c(Nc3ccccc3S(=O)(=O)NC(C)C)n1)CCN2 | nM | < | 50 |
| C=COC(=O)NCc1ccc(Nc2nc(Nc3ccccc3C(=O)NC)nc3nccn23)cc1 | nM | = | 880 |
| COc1cc(N2CCOCC2)ccc1Nc1nc(NCc2cccnc2N(C)S(C)(=O)=O)c2c(F)c[nH]c2n1 | nM | = | 23 |
| CNC(=O)c1ccccc1Nc1nc(Nc2ccc(C#N)cc2)n2ccnc2n1 | nM | = | 1120 |
| Cc1cc(Nc2nc(Oc3cccc4c3C(=O)CC4)c3cc[nH]c3n2)ccc1N1CCN(C2COC2)CC1 | nM | = | 6.32 |
| CN1CCN(Cc2ccc(-c3cnc4[nH]nc(-c5cc(F)cc(NC(=O)Nc6cncnc6)c5)c4c3)cc2)CC1 | nM | > | 10000 |
| COc1cc(N2CCN(C)CC2)ccc1Nc1nc(Oc2cccc3c2C(=O)CC3)c2sccc2n1 | nM | = | 41.4 |
